Data credit: patent US5332726A

biological target: fixed activated platelets (Homo sapiens, UniProt P05106+P08514); experiment: Platelet Aggregation Assay (fibrinogen-mediated aggregation of fixed-activated platelets); type: cell-based; conditions: fixed activated platelets, human fibrinogen 250 μg/ml; read-out: Inhibition of Fibrinogen Mediated Platelet Aggregation IC50
Sequence (P08514 32-1039): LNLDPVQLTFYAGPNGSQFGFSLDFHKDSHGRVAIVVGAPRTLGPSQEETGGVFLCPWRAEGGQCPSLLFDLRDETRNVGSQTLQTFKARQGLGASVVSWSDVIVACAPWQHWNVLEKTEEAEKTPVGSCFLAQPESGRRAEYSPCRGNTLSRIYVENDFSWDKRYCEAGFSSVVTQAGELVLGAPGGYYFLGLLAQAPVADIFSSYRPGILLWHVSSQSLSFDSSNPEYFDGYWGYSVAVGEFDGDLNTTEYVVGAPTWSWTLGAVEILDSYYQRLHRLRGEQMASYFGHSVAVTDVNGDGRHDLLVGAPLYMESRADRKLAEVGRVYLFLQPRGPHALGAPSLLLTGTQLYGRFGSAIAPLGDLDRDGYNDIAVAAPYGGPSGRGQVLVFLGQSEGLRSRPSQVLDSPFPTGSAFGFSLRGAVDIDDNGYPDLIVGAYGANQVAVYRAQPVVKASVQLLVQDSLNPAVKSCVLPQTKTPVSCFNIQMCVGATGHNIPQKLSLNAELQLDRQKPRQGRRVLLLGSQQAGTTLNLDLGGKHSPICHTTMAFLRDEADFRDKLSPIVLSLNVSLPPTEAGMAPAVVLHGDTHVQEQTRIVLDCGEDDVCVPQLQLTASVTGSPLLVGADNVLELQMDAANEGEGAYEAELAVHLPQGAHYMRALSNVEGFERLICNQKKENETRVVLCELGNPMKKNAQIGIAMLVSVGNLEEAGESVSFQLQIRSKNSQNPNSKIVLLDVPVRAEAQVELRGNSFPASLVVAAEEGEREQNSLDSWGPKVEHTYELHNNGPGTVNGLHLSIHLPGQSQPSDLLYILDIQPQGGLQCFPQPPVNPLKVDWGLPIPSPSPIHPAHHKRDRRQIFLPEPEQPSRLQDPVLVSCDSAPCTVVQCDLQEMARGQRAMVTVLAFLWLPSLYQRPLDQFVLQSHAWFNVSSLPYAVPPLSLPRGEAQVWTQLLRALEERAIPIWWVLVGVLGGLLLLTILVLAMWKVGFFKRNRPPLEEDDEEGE
Sequence (P05106 27-788): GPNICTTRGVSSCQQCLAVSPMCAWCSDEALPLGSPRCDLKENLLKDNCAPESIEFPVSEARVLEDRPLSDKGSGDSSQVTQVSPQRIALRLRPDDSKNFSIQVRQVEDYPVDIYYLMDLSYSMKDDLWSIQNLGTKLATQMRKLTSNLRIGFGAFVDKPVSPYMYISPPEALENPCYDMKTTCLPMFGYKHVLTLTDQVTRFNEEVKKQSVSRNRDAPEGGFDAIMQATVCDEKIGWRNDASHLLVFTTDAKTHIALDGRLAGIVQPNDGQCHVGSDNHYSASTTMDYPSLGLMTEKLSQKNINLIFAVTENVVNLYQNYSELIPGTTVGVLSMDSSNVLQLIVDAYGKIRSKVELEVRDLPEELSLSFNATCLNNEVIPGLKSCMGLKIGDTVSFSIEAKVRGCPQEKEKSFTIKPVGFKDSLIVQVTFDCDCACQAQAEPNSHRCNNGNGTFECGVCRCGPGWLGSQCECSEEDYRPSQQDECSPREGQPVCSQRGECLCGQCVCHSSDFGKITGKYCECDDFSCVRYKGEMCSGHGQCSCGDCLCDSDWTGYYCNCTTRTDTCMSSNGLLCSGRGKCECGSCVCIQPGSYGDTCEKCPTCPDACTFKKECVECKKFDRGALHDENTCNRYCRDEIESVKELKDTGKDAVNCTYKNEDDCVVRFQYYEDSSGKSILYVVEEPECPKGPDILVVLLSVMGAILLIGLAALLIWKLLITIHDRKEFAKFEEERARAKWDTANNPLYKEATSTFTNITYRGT
pIC50: −log10 of the molar value. Residues, ends and D or L forms follow the SMILES beside them.
value_type: pIC50

Worked examples follow.
N=C(N)NCCC[C@H](N)C(=O)NCC(=O)N[C@@H](CC(=O)O)C(=O)NCC(=O)O [L-arginylglycyl-L-aspartyl glycine] (H-RGDG-OH) = 4.84
N=C(N)NCCCCCCCC(=O)N[C@@H](CC(=O)O)C(=O)NCCCCNC(=N)N = 5.72

P: CC(C)[C@H](NC(=O)[C@H](CC(=O)O)NC(=O)CNC(=O)CCCCn1ccnc1)C(=O)O
Q: CN(CC(=O)N[C@@H](CC(=O)O)C(=O)N[C@@H](Cc1ccc(O)cc1)C(=O)O)C(=O)CCCCCNC(=N)N
R: CCN(CC(=O)N[C@@H](CC(=O)O)C(=O)N[C@H](C(=O)O)C(C)C)C(=O)CCCCCn1ccnc1C
Task: Order these by pIC50, descending, and give the full ranking. Response format: the labels, sorted as the prompt asks.
Output: R, Q, P
(R: 5.72, Q: 5.14, P: 4.69)

###

target: fixed activated platelets (Homo sapiens, UniProt P05106+P08514); test: Platelet Aggregation Assay (fibrinogen-mediated aggregation of fixed-activated platelets); type: cell-based; conditions: fixed activated platelets, human fibrinogen 250 μg/ml; read-out: Inhibition of Fibrinogen Mediated Platelet Aggregation IC50
Non-standard residues stand in square brackets, D forms with d. Residues, ends and D or L forms follow the SMILES beside them. NMeD = CN[C@@H](CC(=O)O)C(=O)O; Ava = NCCCCC(=O)O
value_type: IC50

Worked examples follow.
COC(=O)[C@](CCCNC(=N)N)(CC(C)C)NC(=O)[C@H](CC(=O)O)NC(=O)CCCCCCCCNC(=N)N = > 25 µM
CC(C)[C@H](NC(=O)[C@H](CC(=O)O)NC(=O)CNC(=O)CCCCN)C(=O)O (H-[Ava]GDV-OH) = > 64 µM
CCC(CC)(NC(=O)[C@H](CC(=O)O)NC(=O)CCCCCCCCNC(=N)N)C(=O)N[C@@H](CCCNC(=N)N)C(=O)O = > 25 µM
N=C(N)NCCCCC(=O)NCC(=O)N[C@@H](CC(=O)O)C(=O)NCCc1ccccc1 = 2.1 µM

Would you kindly look at the next entry?
IC50 reading for CC(C)[C@H](NC(=O)[C@H](CC(=O)O)N(C)C(=O)CNC(=O)[C@@H](N)CCCNC(=N)N)C(=O)O (H-RG[NMeD]V-OH) : > 64 µM
